- Test system: NCI-H23
- method_notes: NCI tumour cell line growth inhibition, 48 h
Activity calls are given as the source filed them. No stated cut-off is given here; in the data, active = GI50 up to about 1.1 µM and inactive = higher.
measurement_type: GI50

CC(C)N(C(=O)C12C3C4C1C1C2C3C41C#N)C(C)C (configuration not stated) ... > 100 µM (inactive)

Now consider the entry below.
GI50 recorded for this molecule, C/C=C(/C)C(=O)O[C@H]1C(C)=C[C@]23C(=O)[C@@H](C=C(COC(C)=O)[C@@H](O)[C@]12O)[C@H]1[C@@H](C[C@H]3C)[C@@]1(C)OC(=O)/C(C)=C\C , is 2.42 µM (inactive)

---

- System: SF-295
- method_notes: NCI tumour cell line growth inhibition, 48 h
The source made the active and inactive calls. Cut-off read from the data, not from the text of the source: active = GI50 up to about 1.1 µM and inactive = higher.
measurement_type: GI50

CC(C)=CCCc1c(C)ccc2c1C(=O)C(=O)C(C(C)C)=C2 ... > 22 µM (inactive)
COC(=O)/C(C#N)=C1\NN=NN1CCCN1CCOCC1 ... > 100 µM (inactive)
O=C(Nc1ccc(Cl)cc1C(=O)O)c1ccc([N+](=O)[O-])cc1 ... 23.7 µM (inactive)
CCOC(=O)c1c(C(F)(F)F)oc2c1ccc1nc3nonc3nc12 ... 27 µM (inactive)

Please fill in: GI50 reported for CC1=C2[C@@H](c3ccccc3)C3C=CC2(C=C3C(F)(F)F)N(C(=O)NC2CCCCC2)C1=O (some centres undefined) = > 100 µM (inactive)

Per the records, this compound ( CC1=NN(c2nc(N)nc(CN3CCOCC3)n2)C(C)(C)C1 ) has GI50 equal to > 100 µM (inactive)

// COc1cc(C2C(Cl)C(=O)N2NC(=O)Cc2ccccc2)cc(Br)c1O (centres undefined) : GI50 value = > 100 µM (inactive)

For reference, reported GI50 for CNS(=O)(=O)NNS(=O)(=O)c1ccc(Cl)cc1 stands at > 100 µM (inactive)

Notebook: CC/C(=C/OC)P1(=O)OC(C)(C)CN1C(C)(C)C (centres undefined) , GI50 read as > 100 µM (inactive)

---

- System: COLO 205
- method_notes: NCI tumour cell line growth inhibition, 48 h
Calls of active or inactive are those of the source. Cut-off read from the data, not from the text of the source: active = GI50 up to about 1.1 µM and inactive = higher. Square brackets hold non-standard residues; d marks the D form. Peptide text beside a SMILES is read from it. pGlu = O=C1CC[CH](C(=O)O)N1
Below, each of the molecules is paired with its reported GI50 value.

COc1ccc(Nc2nc3ccccc3nc2-c2cccs2)cc1 ... > 100 µM (inactive)
C/C(CN1C(=O)c2ccccc2C1=O)=N\NS(=O)(=O)c1ccc(F)cc1 ... > 100 µM (inactive)
O=C(Nc1ccc(Cl)cc1C(=O)O)c1ccc([N+](=O)[O-])cc1 ... 18.7 µM (inactive)

Looking up CC(NC(=O)C(Cc1c[nH]cn1)NC(=O)C1CCC(=O)N1)C(N)=O (stereo not drawn) ([pGlu]-His-Ala-NH2; configuration not given here) , I found its GI50 recorded as > 100 µM (inactive)

Entry CC(=O)NC1(C)CCC(C(C)(C)NC(C)=O)CC1 (configuration not stated) — recorded GI50 = > 100 µM (inactive)

For COc1ccc2[nH]cc(C=C3C(=O)NC(=S)NC3=O)c2c1 the molecule record lists GI50 as > 100 µM (inactive)

Lab note: measured GI50 of CC1=CC(=O)/C(=C/NC(=S)NCCc2ccccc2)C(=O)O1 was > 100 µM (inactive)

Record CC(C)(C)C1=CC(C)(n2[nH]c(=O)n(-c3ccccc3)c2=O)C=C(C(C)(C)C)C1=O . Reported GI50: > 100 µM (inactive)

---

- Test system: CAKI-1
- method_notes: NCI tumour cell line growth inhibition, 48 h
Active and inactive are the calls of the source. Rule as the data show it: active = GI50 up to about 1.1 µM and inactive = higher.
measurement_type: GI50

O=CC1C(Cl)=Nc2nc3ccccc3n2C1c1ccc([N+](=O)[O-])cc1 (centres undefined) ... 3.09 µM (inactive)
COC(=O)[C@]1(c2cc3ccccc3n2S(=O)(=O)c2ccccc2)CC2CCC1NC2 (some centres undefined) ... 15.5 µM (inactive)
COc1ccc(OC)c2c1C=C[C@H](C1(C)SCCS1)C2C(C)=O (some centres undefined) ... 32.6 µM (inactive)

We next turn to a different molecule, shown below.
response.value for CC(NNC(=O)c1cc[n+]([BH2-]C#N)cc1)c1ccccc1 (centres undefined) (field: GI50) = > 100 µM (inactive)

---

- Test system: NCI-H23
- method_notes: NCI tumour cell line growth inhibition, 48 h
Activity calls are given as the source filed them. Cut-off read from the data, not from the text of the source: active = GI50 up to about 1.1 µM and inactive = higher.
GI50: recorded values

Example entries begin here.
CCN1CCC(O)(c2ccc(OC)cc2)C(C(=O)c2ccc(OC)cc2)C1 (stereo not given) ... 17.7 µM (inactive)
CN1CCc2c(sc3nc(S)nc(S)c23)C1 ... > 100 µM (inactive)
Cc1cc(NS(=O)(=O)c2ccc(NC(=O)c3ccc(Cl)c4c(Nc5ccc(S(=O)(=O)Nc6cc(C)on6)cc5)c5ccccc5nc34)cc2)no1 ... > 10 µM (inactive)
C[C@@]1(c2ccccc2)O[C@@H]2C[C@H]3[C@@H]4CCC5=CC(=O)C=C[C@]5(C)[C@@]4(F)[C@@H](O)C[C@]3(C)[C@]2(C(=O)CO)O1 [AMCINAFIDE] ... 18.1 µM (inactive)
CC(=O)OCC(C)C1=C(O)C(=O)C2(C)C/C=C(/C)CC/C=C(\C)CCC(O)C(C)CCC12 (stereo not given) ... 17.8 µM (inactive)

Data point: NC(C(=O)O)C(O)c1c[nH]cn1 (stereo not given) ; GI50 = > 100 µM (inactive)

So, CCN(CC)c1ccc2cc(C(N)=O)/c(=N/c3ccc(F)cc3)oc2c1 ? Its GI50 was 13.4 µM (inactive)

---

- System: SN12C
- method_notes: NCI tumour cell line growth inhibition, 48 h
The source made the active and inactive calls. No stated cut-off is given here; in the data, active = GI50 up to about 1.1 µM and inactive = higher.
measurement_type: GI50

Example results:
Nc1ccc(C(=O)NN2C(=O)C(Cl)C2c2ccccc2O)cc1 (stereo not drawn) ... > 100 µM (inactive)
C/C(CN1C(=O)c2ccccc2C1=O)=N\NS(=O)(=O)c1ccc(F)cc1 ... > 100 µM (inactive)

// sample CC(=O)Nc1ccc(C(=O)NN2C(=O)C(Cl)C2c2ccc(Cl)cc2)cc1 (stereo not drawn) , its GI50 was 39.6 µM (inactive)

---

- Test system: SF-268
- method_notes: NCI tumour cell line growth inhibition, 48 h
Activity calls are given as the source filed them. No stated cut-off is given here; in the data, active = GI50 up to about 1.1 µM and inactive = higher.
# output must be one of YES for active, NO for inactive

Example entries and their recorded answers appear below.
CN(CCNC(=O)c1nn(-c2ccc(Cl)cc2Cl)c2c1Cc1ccccc1-2)CCNC(=O)c1nn(-c2ccc(Cl)cc2Cl)c2c1Cc1ccccc1-2 ... NO
Cc1c(CCCl)c(N=P(c2ccccc2)(c2ccccc2)c2ccccc2)n2c(nc3ccccc32)c1C#N ... NO
CN1CCc2c(sc3nc(S)nc(S)c23)C1 ... NO
CC(=O)Nc1ccc(C(=O)NN2C(=O)C(Cl)C2c2ccc(Cl)cc2)cc1 (centres undefined) ... NO
COc1cc(C2c3cc4c(cc3OC(NCCc3ccccc3)C2C)OCO4)cc(OC)c1OC (centres undefined) ... YES
Cl.O=C(O)c1cccnc1 ... NO
COc1ccc2[nH]cc(C=C3C(=O)NC(=S)NC3=O)c2c1 ... NO
N#CCC(=O)N/N=C1/C(=O)N(c2ccc(Cl)cc2)C(=O)C(=O)C1c1nc2ccccc2s1 (centres undefined) ... NO
CCc1ccc(/N=C\c2cc(OC)c(OC)c(OC)c2)cc1 ... NO
O=C(/C=C/c1ccccc1O)c1cccnc1 ... NO

Please state the recorded outcome for this molecule: Nc1c(-c2nc3ccccc3s2)[n+]([O-])c2ccccc2[n+]1[O-]
NO

What did this assay record as the result for CC(C)(C)C1=CC(C)(n2[nH]c(=O)n(-c3ccccc3)c2=O)C=C(C(C)(C)C)C1=O ?
NO

Tell me the recorded outcome of this test for OC(c1ccoc1)c1cc2ccccc2s1 (centres undefined) .
NO

Dear colleague, could you share the recorded outcome for O=C(OC1=CCN(Br)C1=O)C1=C(O)C(=O)N(Br)C1 when you have a moment?
NO

Name the outcome recorded for CC1(O)Oc2ccc3ccccc3c2C=C1C(N)=O (centres undefined) in the assay.
NO

How did this test come out for Cc1cc(S(=O)(=O)Nc2nc(N)nc(N3CCOCC3)n2)c(SCC(=O)O)cc1Cl ?
NO

---

- Tested on: M14
- method_notes: NCI tumour cell line growth inhibition, 48 h
Calls of active or inactive are those of the source. Rule as the data show it: active = GI50 up to about 1.1 µM and inactive = higher.
Here the recorded GI50 is given for each entry.

Example entries and their recorded answers appear below.
COc1cc(C2NCCC(c3ccccc3)(c3ccccc3)N2)cc(OC)c1OC (centres undefined) ... 11.7 µM (inactive)
COC(=O)[C@@H](NC(=O)N(Cc1ccccc1)C[C@H](CC(C)C)NC(=O)[C@@H](NC(=O)OC(C)(C)C)C(C)C)C(C)C ... > 100 µM (inactive)
CC(C)(C)OC1=C(OC(C)(C)C)C(O)(c2ccc(Cl)cc2)C1=O (centres undefined) ... > 100 µM (inactive)
Cc1ccc(/N=N/c2c(O)c(C(=O)Nc3ccccc3)cc3ccccc23)c([N+](=O)[O-])c1 ... > 100 µM (inactive)

The reported value for CC1(C)CC(=O)c2c(nc3ccc4ccccc4c3c2-c2ccc(NC(=O)CCCCC(=O)Nc3ccc(-c4c5c(nc6ccc7ccccc7c46)CC(C)(C)CC5=O)cc3)cc2)C1 in terms of GI50 is > 100 µM (inactive)

Kindly note the recorded GI50 for O=C(O)CN1CCNCCN(CC(=O)O)CCNCC1 , which is > 100 µM (inactive)

Memo: Cc1cc2c(c(N)c1C)C(=O)c1ccccc1C2=O , reported GI50: 29.2 µM (inactive)

Entry C[C@H](CCC1=NCCN1)[C@H]1CC[C@H]2[C@@H]3CC[C@@H]4C[C@H](O)CC[C@]4(C)[C@H]3CC[C@]12C , GI50 reported as 2.49 µM (inactive)

Reported GI50 ( COc1ccc(CC2c3cc(OC)c(OC)c(OC)c3CC[N+]2(C)C)cc1Oc1ccc(CC2c3cc4c(c(OC)c3CC[N+]2(C)C)OCO4)cc1 (centres undefined) ) = > 100 µM (inactive)

Data origin, for the record: ChEMBL document CHEMBL1201862
